- Tested on: human colorectal cancer cell strain HCT 116
- protocol-text: Cell growth inhibition test, HCT 116
- Assay type: cell-based
- assay-setup: 72 hours, read-out: HCT116, 50% Growth Inhibition Concentration (IC50 value)
- Experimental: Cell Growth Inhibition Test With respect to the compounds relating to the present invention and the known compound (BAY 43-9006), cell growth inhibition activity was measured. A sample compound was in-series diluted with dimethyl sulfoxide, and then was 1/50 diluted with a Ca^2+- and Mg^2+-free phosphate-bufferized physiological saline and its 20 μL was poured to a 96-well plate. […]
Where a name gives a salt, the structure may show the parent alone.
# Lookup of reported log10(IC50) keyed by entry
Kindly note that the scale is log10 and the underlying IC50 is in µM.

log10(IC50) of CNc1ncnc2c1ncn2-c1ccc(NC(=O)Nc2ccc(OC3CCN(C)CC3)c(C(F)(F)F)c2)cc1 [Table 2, Compound 62] , assay on human colorectal cancer cell strain HCT 116, is -0.15

log10(IC50) of CNc1ncnc2c1ncn2-c1ccc(NC(=O)Nc2ccc(CN3CCN(C(C)C)CC3)c(C(F)(F)F)c2)cc1 [Table 3, Compound 28] , assay on human colorectal cancer cell strain HCT 116, is -0.70

---
log10(IC50) of CNc1ncnc2c1ncn2-c1ccc(NC(=O)Nc2ccc(CCCN(C)C)c(C(F)(F)F)c2)cc1 [Table 2, Compound 74] , assay on human colorectal cancer cell strain HCT 116, is 0.08

log10(IC50) of CNc1ncnc2c1ncn2-c1ccc(NC(=O)Nc2ccc(N(C)C)c(C(F)(F)F)c2)cc1 [Table 2, Compound 42] , assay on human colorectal cancer cell strain HCT 116, is 0.26

log10(IC50) of CNc1ncnc2c1ncn2-c1ccc(NC(=O)Nc2ccc(CCCN3CCOCC3)c(C(F)(F)F)c2)cc1 [Table 2, Compound 76] , assay on human colorectal cancer cell strain HCT 116, is -0.05

log10(IC50) of O=C(Nc1ccc(-n2cnc3cnccc32)cc1)Nc1ccc(Cl)c(C(F)(F)F)c1 [Table 1, Compound 1] , assay on human colorectal cancer cell strain HCT 116, is 0.08

log10(IC50) of Nc1ncnc2c1ncn2-c1ccc(N(O)C(=O)Nc2ccc(Cl)c(C(F)(F)F)c2)cc1 [Table 1, Compound 49, hydrochloride] , assay on human colorectal cancer cell strain HCT 116, is 0.86

log10(IC50) of COCCNc1ncnc2c1ncn2-c1ccc(NC(=O)Nc2ccc(Cl)c(C(F)(F)F)c2)cc1.Cl [Table 1, Compound 35, hydrochloride] , assay on human colorectal cancer cell strain HCT 116, is 0.45

log10(IC50) of CNc1ncnc2c1ncn2-c1ccc(NC(=O)Nc2cc(CN3CCN(C)CC3)cc(C(F)(F)F)c2)cc1 [Table 2, Compound 25] , assay on human colorectal cancer cell strain HCT 116, is 0.23
